Organism: Rattus norvegicus
Assay: Open TG-GATES - Regimen: Daily Repeat
Type: toxicity, organism-based, Sprague-Dawley
Set-up: regimen Daily Repeat, gender Male, age 6 weeks
Conditions: in vivo, po, 1000 mg/kg, 72 h, tissue Plasma, route gavage, dose level High, time 3 day
Let's look at some molecules and their measured Ca.
quantityKind: Ca (mg/dL)

>  <molecule>
CC(C)(S)[C@@H](N)C(=O)O [PENICILLAMINE]

>  <quantityKind>
Ca

>  <observedResult>
10.7

$$$$
>  <molecule>
O=C(O)c1cccnc1 [NIACIN]

>  <quantityKind>
Ca

>  <observedResult>
10.9

$$$$
>  <molecule>
O=C(N[C@H](CO)[C@H](O)c1ccc([N+](=O)[O-])cc1)C(Cl)Cl [CHLORAMPHENICOL]

>  <quantityKind>
Ca

>  <observedResult>
10.5

$$$$
>  <molecule>
CCN1CCCC1CNC(=O)c1cc(S(N)(=O)=O)ccc1OC (centres undefined) [SULPIRIDE]

>  <quantityKind>
Ca

>  <observedResult>
11.3

$$$$

====

Let's look at some compounds and their measured Mono.
Organism: Rattus norvegicus
Assay: Open TG-GATES - Regimen: Daily Repeat
Assay type: toxicity, organism-based, Sprague-Dawley
Design: regimen Daily Repeat, gender Male, age 6 weeks
Conditions: in vivo, po, 300 mg/kg, […], tissue Blood, route gavage, dose level Middle, time 28 day
quantityKind: Mono (%)

>  <compound>
O=C(N[C@H](CO)[C@H](O)c1ccc([N+](=O)[O-])cc1)C(Cl)Cl [CHLORAMPHENICOL]

>  <quantityKind>
Mono

>  <unitName>
%

>  <observedResult>
1

$$$$
>  <compound>
CC(C)(S)[C@@H](N)C(=O)O [PENICILLAMINE]

>  <quantityKind>
Mono

>  <unitName>
%

>  <observedResult>
2.6

$$$$
>  <compound>
CCN1CCCC1CNC(=O)c1cc(S(N)(=O)=O)ccc1OC (centres undefined) [SULPIRIDE]

>  <quantityKind>
Mono

>  <unitName>
%

>  <observedResult>
1.8

$$$$
>  <compound>
O=C(O)c1cccnc1 [NIACIN]

>  <quantityKind>
Mono

>  <unitName>
%

>  <observedResult>
2.8

$$$$

====

Species: Rattus norvegicus
Assay: Open TG-GATES - Regimen: Daily Repeat
Assay type: toxicity, organism-based, Sprague-Dawley
Design: regimen Daily Repeat, gender Male, age 6 weeks
Conditions: in vivo, po, 0 mg/kg, […], tissue Plasma, route gavage, dose level Control, time 7 day
We use 1 as the dividing line for A/G: on or above the line is yes (1), below is no (0).

>  <molecule>
CC(=N)S [THIOACETAMIDE]

>  <assignedLabel>
yes (1)

$$$$
>  <molecule>
CC(=O)Oc1cc(C(C)C)c(OCCN(C)C)cc1C

>  <assignedLabel>
yes (1)

$$$$
>  <molecule>
O=C(N[C@H](CO)[C@H](O)c1ccc([N+](=O)[O-])cc1)C(Cl)Cl

>  <assignedLabel>
no (0)

$$$$
>  <molecule>
CCSCC[C@H](N)C(=O)O

>  <assignedLabel>
yes (1)

$$$$
>  <molecule>
CC(C)C(=O)Nc1ccc([N+](=O)[O-])c(C(F)(F)F)c1 [FLUTAMIDE]

>  <assignedLabel>
yes (1)

$$$$
>  <molecule>
Nc1nc(N)c2nc(-c3ccccc3)c(N)nc2n1

>  <assignedLabel>
no (0)

$$$$

====

Let's look at some compounds and their measured Neu.
Organism: Rattus norvegicus
Experiment: Open TG-GATES - Regimen: Daily Repeat
Type: toxicity, organism-based, Sprague-Dawley
Design: regimen Daily Repeat, gender Male, age 6 weeks
Conditions: in vivo, po, 0 mg/kg, 72 h, tissue Blood, route gavage, dose level Control, time 3 day
quantityKind: Neu (%)

>  <compound>
CCC(C)(C)C(=O)O[C@H]1C[C@@H](C)C=C2C=C[C@H](C)[C@H](CC[C@@H]3C[C@@H](O)CC(=O)O3)[C@H]21

>  <observedResult>
11.8

$$$$
>  <compound>
CCN1CCCC1CNC(=O)c1cc(S(N)(=O)=O)ccc1OC (centres undefined) [SULPIRIDE]

>  <observedResult>
14

$$$$
>  <compound>
CC(=O)Oc1cc(C(C)C)c(OCCN(C)C)cc1C

>  <observedResult>
14.2

$$$$
>  <compound>
CN1C(=O)OC(C)(C)C1=O

>  <observedResult>
16.4

$$$$

====

Organism: Rattus norvegicus
Experiment: Open TG-GATES - Regimen: Daily Repeat
Format: toxicity, organism-based, Sprague-Dawley
Set-up: regimen Daily Repeat, gender Male, age 6 weeks
Details: in vivo, po, 0 mg/kg, […], tissue Blood, route gavage, dose level Control, time 14 day

>  <molecule>
C[C@](N)(Cc1ccc(O)c(O)c1)C(=O)O

>  <Neu [%]>
19.6

$$$$
>  <molecule>
CC(C)(S)[C@@H](N)C(=O)O

>  <Neu [%]>
15.8

$$$$
>  <molecule>
CC(C)C(=O)Nc1ccc([N+](=O)[O-])c(C(F)(F)F)c1 [FLUTAMIDE]

>  <Neu [%]>
15.2

$$$$
>  <molecule>
CCSCC[C@H](N)C(=O)O

>  <Neu [%]>
18.8

$$$$
>  <molecule>
CCN1CCCC1CNC(=O)c1cc(S(N)(=O)=O)ccc1OC (stereo not given) [SULPIRIDE]

>  <Neu [%]>
18.6

$$$$
>  <molecule>
CN1C(=O)OC(C)(C)C1=O

>  <Neu [%]>
18.6

$$$$
>  <molecule>
Nc1nc(N)c2nc(-c3ccccc3)c(N)nc2n1

>  <Neu [%]>
18

$$$$
>  <molecule>
O=C(N[C@H](CO)[C@H](O)c1ccc([N+](=O)[O-])cc1)C(Cl)Cl

>  <Neu [%]>
18

$$$$
>  <molecule>
CC(=N)S [THIOACETAMIDE]

>  <Neu [%]>
12.6

$$$$
>  <molecule>
C[C@]12CCC(=O)C=C1CC[C@@H]1[C@@H]2CC[C@@]2(C)[C@H]1CC[C@]2(C)O

>  <Neu [%]>
15.4

$$$$
>  <molecule>
CCc1oc2ccccc2c1C(=O)c1cc(I)c(O)c(I)c1

>  <Neu [%]>
12.6

$$$$
>  <molecule>
Oc1ncnc2[nH]ncc12

>  <Neu [%]>
16.8

$$$$
>  <molecule>
O=C(O)c1cccnc1

>  <Neu [%]>
17

$$$$
>  <molecule>
CCC(C)(C)C(=O)O[C@H]1C[C@@H](C)C=C2C=C[C@H](C)[C@H](CC[C@@H]3C[C@@H](O)CC(=O)O3)[C@H]21

>  <Neu [%]>
13.8

$$$$
>  <molecule>
CC(=O)Oc1cc(C(C)C)c(OCCN(C)C)cc1C

>  <Neu [%]>
16.4

$$$$

====

Let's look at some compounds and their measured MCHC.
Species: Rattus norvegicus
Test: Open TG-GATES - Regimen: Single
Assay type: toxicity, organism-based, Sprague-Dawley
Design: regimen Single, gender Male, age 6 weeks
Settings: in vivo, po, 0 mg/kg, 24 h, tissue Blood, route gavage, dose level Control

>  <compound>
CC(=O)Oc1cc(C(C)C)c(OCCN(C)C)cc1C

>  <MCHC [%]>
34.5

$$$$
>  <compound>
C[C@]12CCC(=O)C=C1CC[C@@H]1[C@@H]2CC[C@@]2(C)[C@H]1CC[C@]2(C)O

>  <MCHC [%]>
34.2

$$$$
>  <compound>
CCc1oc2ccccc2c1C(=O)c1cc(I)c(O)c(I)c1

>  <MCHC [%]>
33.8

$$$$
>  <compound>
O=C(N[C@H](CO)[C@H](O)c1ccc([N+](=O)[O-])cc1)C(Cl)Cl

>  <MCHC [%]>
31.9

$$$$
>  <compound>
CC(=N)S [THIOACETAMIDE]

>  <MCHC [%]>
32.9

$$$$
>  <compound>
CCSCC[C@H](N)C(=O)O

>  <MCHC [%]>
33.8

$$$$
>  <compound>
CCN1CCCC1CNC(=O)c1cc(S(N)(=O)=O)ccc1OC (stereo unspecified) [SULPIRIDE]

>  <MCHC [%]>
32.4

$$$$
>  <compound>
O=C(O)c1cccnc1

>  <MCHC [%]>
33.6

$$$$
>  <compound>
CC(C)C(=O)Nc1ccc([N+](=O)[O-])c(C(F)(F)F)c1 [FLUTAMIDE]

>  <MCHC [%]>
33.3

$$$$
>  <compound>
CC(C)(S)[C@@H](N)C(=O)O

>  <MCHC [%]>
32.6

$$$$
>  <compound>
C#C[C@]1(O)CC[C@H]2[C@@H]3CCc4cc(O)ccc4[C@H]3CC[C@@]21C

>  <MCHC [%]>
33.6

$$$$

====

Organism: Rattus norvegicus
Experiment: Open TG-GATES - Regimen: Daily Repeat
Type: toxicity, organism-based, Sprague-Dawley
Parameters: regimen Daily Repeat, gender Male, age 6 weeks
Conditions: in vivo, po, 100 mg/kg, 72 h, tissue Plasma, route gavage, dose level Low, time 3 day

>  <molecule>
CC(C)(S)[C@@H](N)C(=O)O [PENICILLAMINE]

>  <LDH / IU/L>
85

$$$$
>  <molecule>
O=C(N[C@H](CO)[C@H](O)c1ccc([N+](=O)[O-])cc1)C(Cl)Cl [CHLORAMPHENICOL]

>  <LDH / IU/L>
95.6

$$$$
>  <molecule>
O=C(O)c1cccnc1 [NIACIN]

>  <LDH / IU/L>
171.8

$$$$
>  <molecule>
CCN1CCCC1CNC(=O)c1cc(S(N)(=O)=O)ccc1OC (centres undefined) [SULPIRIDE]

>  <LDH / IU/L>
70.4

$$$$

Ref: ChEMBL document CHEMBL3885861
